Entry source: patent US20210330611A1

# Test system: fibrin-induced microglia activation
# run-description: Image-based assay of fibrin-induced microglia activation (HTS and dose response)
# Type: cell-based, rat
# condition-details: Rattus norvegicus, Microglia, primary microglia HTS, fibrin stimulation; increased cell size (>800 μm^2) as marker of activation; read-out: Fibrin % inhibition
Structures can show the parent of a compound that is named as a salt.
Below, each entry is listed alongside its reported inhibition at 10 µM.
Please respond with the number in % and leave the unit unwritten.

These solved cases illustrate the format of a correct answer.
CCN(CC)C(=S)SSC(=S)N(CC)CC ... 114
CN1CCN2c3ncccc3Cc3ccccc3C2C1 (stereo not shown) [Mirtazapine, reference compound] ... 57
COc1cc([C@@H]2c3cc4c(cc3[C@@H](O[C@@H]3O[C@@H]5CO[C@@H](c6cccs6)O[C@H]5[C@H](O)[C@H]3O)[C@H]3COC(=O)[C@H]23)OCO4)cc(OC)c1O [Teniposide, reference compound] ... 91
COC(=O)C1=C(C)NC(C)=C(C(=O)OCCN2CCN(C(c3ccccc3)c3ccccc3)CC2)C1c1cccc([N+](=O)[O-])c1 (stereo not shown) [Manidipine Hydrochloride] ... -43
CC(=O)OC(C)C[N+](C)(C)C (stereo not shown) ... 2
C[C@]12C=CC(=O)C=C1CC[C@@H]1[C@@H]2[C@@H](O)C[C@@]2(C)[C@H]1CC[C@]2(O)C(=O)CO [Prednisolone, reference compound] ... 114
CCCC(=O)O[C@]1(C(=O)CO)CC[C@H]2[C@@H]3CCC4=CC(=O)CC[C@]4(C)[C@H]3[C@@H](O)C[C@@]21C [Hydrocortisone butyrate, reference compound] ... 108
CC(=O)OCC(=O)[C@@]12OC3(CCCC3)O[C@@H]1C[C@H]1[C@@H]3CCC4=CC(=O)C=C[C@]4(C)[C@@]3(F)[C@@H](O)C[C@@]12C [Amcinonide] ... 112

For the compound `O=C(O)c1cc(/N=N/c2ccc(O)c(C(=O)O)c2)ccc1O` , give its measured inhibition at 10 µM value. -36

For the compound `OC[C@@H](O)[C@@H](O)[C@H](O)[C@H](O)CO` , give its measured inhibition at 10 µM value. 5
